// reported DC50 per item
targetEntity: GSPT1 (Homo sapiens, UniProt P15170+Q96SW2)
Construct: host or cells: HEK293 LgBiT cell line
Sequence (P15170 whole entry): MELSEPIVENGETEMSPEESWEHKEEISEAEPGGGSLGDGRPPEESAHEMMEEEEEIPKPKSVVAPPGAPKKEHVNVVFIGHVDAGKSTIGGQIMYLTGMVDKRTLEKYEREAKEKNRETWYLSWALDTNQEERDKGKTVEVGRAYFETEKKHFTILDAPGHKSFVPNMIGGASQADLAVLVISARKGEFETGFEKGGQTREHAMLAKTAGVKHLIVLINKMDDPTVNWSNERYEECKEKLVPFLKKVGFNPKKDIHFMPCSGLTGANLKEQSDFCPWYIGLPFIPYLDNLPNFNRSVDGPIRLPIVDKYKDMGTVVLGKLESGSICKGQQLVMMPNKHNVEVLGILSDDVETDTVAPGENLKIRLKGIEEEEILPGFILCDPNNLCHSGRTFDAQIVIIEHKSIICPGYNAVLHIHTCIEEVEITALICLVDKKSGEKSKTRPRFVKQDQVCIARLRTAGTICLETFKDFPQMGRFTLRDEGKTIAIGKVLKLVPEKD
Sequence (Q96SW2 whole entry): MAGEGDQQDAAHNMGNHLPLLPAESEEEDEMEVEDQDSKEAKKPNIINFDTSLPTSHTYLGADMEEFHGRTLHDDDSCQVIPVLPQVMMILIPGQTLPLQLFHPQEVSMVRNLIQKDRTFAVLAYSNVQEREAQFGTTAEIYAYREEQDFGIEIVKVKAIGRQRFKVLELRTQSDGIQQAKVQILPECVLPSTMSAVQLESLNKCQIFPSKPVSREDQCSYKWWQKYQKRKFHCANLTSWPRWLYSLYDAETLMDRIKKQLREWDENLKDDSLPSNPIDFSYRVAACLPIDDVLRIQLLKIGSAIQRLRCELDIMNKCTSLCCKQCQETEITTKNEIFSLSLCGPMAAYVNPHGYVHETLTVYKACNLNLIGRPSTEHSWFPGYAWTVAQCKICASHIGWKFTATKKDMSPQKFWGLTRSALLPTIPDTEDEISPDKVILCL
Sequence (Q16531 whole entry partner): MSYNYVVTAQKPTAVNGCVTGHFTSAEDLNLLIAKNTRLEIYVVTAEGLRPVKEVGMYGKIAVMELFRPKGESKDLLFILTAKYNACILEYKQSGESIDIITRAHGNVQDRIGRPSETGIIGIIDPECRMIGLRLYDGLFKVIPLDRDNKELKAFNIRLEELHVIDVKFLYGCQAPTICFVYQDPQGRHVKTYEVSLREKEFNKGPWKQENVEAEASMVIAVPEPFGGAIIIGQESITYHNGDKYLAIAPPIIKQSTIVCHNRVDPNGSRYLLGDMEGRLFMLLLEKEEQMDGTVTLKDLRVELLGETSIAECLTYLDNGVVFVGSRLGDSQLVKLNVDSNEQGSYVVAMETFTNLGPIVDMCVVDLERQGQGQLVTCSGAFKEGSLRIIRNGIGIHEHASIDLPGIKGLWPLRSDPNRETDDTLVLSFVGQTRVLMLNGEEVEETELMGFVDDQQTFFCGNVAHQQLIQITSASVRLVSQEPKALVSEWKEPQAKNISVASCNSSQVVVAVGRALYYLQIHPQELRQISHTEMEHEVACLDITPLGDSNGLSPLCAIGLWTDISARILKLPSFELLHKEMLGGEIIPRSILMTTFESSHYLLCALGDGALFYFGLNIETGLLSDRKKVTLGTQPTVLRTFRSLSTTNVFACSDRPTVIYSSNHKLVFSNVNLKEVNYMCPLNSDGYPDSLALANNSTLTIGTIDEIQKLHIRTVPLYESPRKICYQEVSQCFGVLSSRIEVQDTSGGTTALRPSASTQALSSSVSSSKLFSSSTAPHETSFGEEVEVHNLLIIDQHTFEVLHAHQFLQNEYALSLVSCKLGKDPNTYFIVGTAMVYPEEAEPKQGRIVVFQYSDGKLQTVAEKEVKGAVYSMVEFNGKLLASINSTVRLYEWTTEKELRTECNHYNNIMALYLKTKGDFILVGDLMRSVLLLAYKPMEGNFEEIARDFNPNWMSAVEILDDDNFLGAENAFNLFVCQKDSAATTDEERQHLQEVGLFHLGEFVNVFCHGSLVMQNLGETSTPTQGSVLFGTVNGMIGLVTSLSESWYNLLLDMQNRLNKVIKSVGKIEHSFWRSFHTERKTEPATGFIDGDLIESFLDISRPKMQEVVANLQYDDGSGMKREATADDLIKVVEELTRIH
experimentalDetails: GSPT1 HiBit degradation assay
Type: cell-based
conditionContext: Table 3A; HEK293 LgBiT cells expressing GSPT1_HiBiT, luminescence after 6 hours

{"molecule": "Cc1c(NC(=O)c2ccc(C3CC3)cc2F)cc(F)cc1-c1ncnc(N)c1OCCN(C)C(=O)/C=C/CN(C)CCOCCOCCOCCOCCCCCCCCc1cc(Cl)cc(NC(=O)NCc2ccc3c(c2)CN(C2CCC(=O)NC2=O)C3=O)c1 (stereo not shown)", "DC50": "< 0.25 µM"}
{"molecule": "Cc1c(CC(=O)N(C)C)ccc(NC(=O)c2nn([C@@H]3CCCN(C(=O)/C=C/CN(C)CCOCCOCCOCCOCCOCCOCCc4cc(Cl)cc(NC(=O)NCc5ccc6c(c5)CN(C5CCC(=O)NC5=O)C6=O)c4)C3)c3ncnc(N)c23)c1C (stereo partly shown)", "DC50": "> 10 µM"}
{"molecule": "CN(C/C=C/C(=O)N1CCC[C@@H](n2nc(-c3ccc(Oc4ccccc4)cc3)c3c(N)ncnc32)C1)CCOCCOCCOCCOCCOCCOCCOCCOCCOCCCCCc1cc(Cl)cc(NC(=O)NCc2ccc3c(c2)CN(C2CCC(=O)NC2=O)C3=O)c1 (stereo partly shown)", "DC50": "5 to 10 µM"}

Here is the next item to consider.
Field DC50 (entry C=C(F)C(=O)N1CCN(c2nc(OC[C@@H]3CCCN3CCCOCCOCCOCCOCCOCCOCCOCCCCCc3ccc(Cl)cc3NC(=O)NCc3ccc4c(c3)CN(C3CCC(=O)NC3=O)C4=O)nc3c2CCN(c2cccc4cccc(Cl)c24)C3)C[C@@H]1CC#N (stereo partly shown) ) reads 0.25 to 5 µM

* * *

The reader will find reported GI50 values listed item by item below.
System: HeLa KRas G12C cells
experimentalDetails: Cellular growth inhibition assay (CTG), HeLa KRas G12C cells
Type: cell-based
conditionContext: Homo sapiens, CellTiter-Glo 2.0, day-5

See these solved cases before continuing.
{"compound": "C=C(F)C(=O)N1CCN(c2nc(OC[C@@H]3CCCN3CCOCCOCCOCCOCCOCCOCCc3cc(Cl)cc(NC(=O)NCc4ccc5c(c4)CN(C4CCC(=O)NC4=O)C5=O)c3)nc3c2CCN(c2cccc4cccc(Cl)c24)C3)C[C@@H]1CC#N (stereo partly shown) [Compound I-2]", "GI50": "> 10000 nM"}
{"compound": "C=C(F)C(=O)N1CCN(c2nc(OC[C@@H]3CCCN3CCOCCOCCOCCOCCOCCOCCOCCOCCCCCCCCc3cc(Cl)cc(NC(=O)NCc4ccc5c(c4)CN(C4CCC(=O)NC4=O)C5=O)c3)nc3c2CCN(c2cccc4cccc(Cl)c24)C3)C[C@@H]1CC#N (stereo partly shown) [Compound I-38]", "GI50": "< 1000 nM"}
{"compound": "C=C(F)C(=O)N1CCN(c2nc(OC[C@@H]3CCCN3CCOCCOCCOCCOCCOCCOCCOCCOCCOCCOCCOCCOCCOCCOCCCCCCCCc3cc(Cl)cc(NC(=O)NCc4ccc5c(c4)CN(C4CCC(=O)NC4=O)C5=O)c3)nc3c2CCN(c2cccc4cccc(Cl)c24)C3)C[C@@H]1CC#N (stereo partly shown) [Compound I-47]", "GI50": "< 1000 nM"}

// field: GI50; key: C=C(F)C(=O)N1CCN(c2nc(OC[C@@H]3CCCN3CCCOCCOCCOCCOCCOCCOCCOCCCCCc3cc(Cl)cc(NC(=O)NCc4ccc5c(c4)CN(C4CCC(=O)NC4=O)C5=O)c3)nc3c2CCN(c2cccc4cccc(Cl)c24)C3)C[C@@H]1CC#N (stereo partly shown) [Compound I-118] ; value = 1000 to 3000 nM

The measurements presented in this section are drawn from patent US20240238424A1.
